- Test system: HOP-62
- Assay Protocol: NCI tumour cell line growth inhibition, 48 h
Activity calls are given as the source filed them. No stated cut-off is given here; in the data, active = GI50 up to about 1.1 µM and inactive = higher.
Allowed answers: 1.0 = active, 0.0 = inactive

# count of solved cases: 8
COc1ccc(OC)c(/C=C/NC=O)c1 ... 0.0
COc1ccc(N(C)C(=O)N(C)c2ccc([N+](=O)[O-])cc2)cc1 ... 0.0
COc1cc(NCCC(=O)O)c2ncccc2c1 ... 0.0
COc1ccc(C2NC3=C(CCCC3)N2)cc1 ... 0.0
CN(C)c1ccc(C2CC(=O)CC(c3ccc(N(C)C)cc3)C23C(=O)NC(=S)NC3=O)cc1 (centres undefined) ... 0.0
COC(=O)C1(C(=O)OC)N=C(C)OC1c1ccccc1O (centres undefined) ... 0.0
CCC1=C(C(C)=O)[C@@H]2CCCCC(C(=O)OC)[C@@H]2C1=O (some centres undefined) ... 0.0
C=C1COC(/C=C(\C)CC/C=C(\C)CCl)C1 (centres undefined) ... 0.0

Let's switch to this compound now.
Data request: Please state the recorded outcome for this compound: CCN1CCC(O)(/C=C/c2ccc(C)cc2C)C(C(=O)/C=C/c2ccc(C)cc2C)C1 (centres undefined)
Data returned: 0.0

Hello, the source for this data is ChEMBL document CHEMBL1201862, in case you need it.
